# tested-system: recombinant human GST-SYK (Homo sapiens, UniProt P43405)
# test-summary: Homogeneous Time-Resolved Fluorescence (HTRF) assay for the recombinant human Syk enzyme
# condition-parameters: recombinant human GST-SYK 5 pM, ATP 25 μM, read-out: rhSYK IC50
Threshold-based label: IC50 under 5 nM gives yes (1), IC50 not under 5 nM gives no (0).

Use the examples below as a reference point.
Cc1cc(Nc2nccc(C(F)(F)F)n2)cc(-c2cnc(C3(O)CCc4cc(C(=O)O)ccc43)s2)n1 (stereo not shown) | yes (1)
Cc1cc(Nc2cnccn2)nc(-c2cnc(C3(O)CCCc4cc(C(=O)O)ccc43)s2)c1 (single isomer, unassigned) | yes (1)
COc1ccnc(Nc2cc(C)nc(-c3cnc(C(C)(O)[C@H]4CC[C@H](C(=O)O)CC4)s3)c2)n1 (single isomer, unassigned) | yes (1)

Task item: is_below(IC50, 5 nM) for Cc1cc(Nc2cc(C(F)(F)F)ncn2)nc(-c2cnc(C3(O)CCC(C(N)=O)C(C)(C)C3)s2)c1 (single isomer, unassigned) ?
Reply: yes (1)

Task item: Lab note: confirm whether the reported IC50 for this molecule is below 5 nM, equality not counting. molecule: Cc1cc(Nc2nccc(C(F)(F)F)n2)cc(-c2cnc(C3(O)CCCc4cc(C(=O)O)ccc43)s2)n1 (single isomer, unassigned)
Reply: yes (1)

Task item: Report whether reported IC50 is lower than 5 nM (strictly) for Cc1cc(Nc2cccc(C(F)(F)F)n2)cc(-c2cnc(C3(O)CCC(C(=O)O)C(C)(C)C3)s2)c1 (single isomer, unassigned)
Reply: no (0)

Task item: is_below(IC50, 5 nM) for Cc1cc(-c2cnc(C3(O)CCC3)s2)nc(Nc2cc(C(F)(F)F)ccn2)n1 ?
Reply: no (0)

Task item: Below 5 nM on IC50? Entry COC(=O)c1ccc2c(c1)CCCC2(O)c1ncc(-c2cc(Nc3nccc(C(F)(F)F)n3)cc(C)n2)s1 (single isomer, unassigned)
Reply: no (0)

###

# tested-system: recombinant human GST-SYK (Homo sapiens, UniProt P43405)
# Construct: purchased Carna Biosciences 08-176
# test-summary: Homogeneous Time-Resolved Fluorescence (HTRF) assay for the recombinant human Syk enzyme
# Type: biochemical
# condition-parameters: recombinant human GST-SYK 5 pM, ATP 25 μM, read-out: rhSYK IC50
One threshold, 1 nM, splits the recorded IC50 values: lower ones are True, equal or higher ones are False.

Task item: Criterion: IC50 strictly below 1 nM. Is it met by Cc1cc(Nc2cc(C(F)(F)F)ncn2)nc(-c2cnc(C3(O)CCC(C(=O)O)C(C)(C)C3)s2)c1 (stereo not drawn) [Example 1.2] ?
Reply: False

Task item: # TODO verify IC50 < 1 nM strictly for this molecule: Cc1cc(Nc2nccc(C(F)(F)F)n2)cc(-c2cnc(C(C)(O)[C@H]3CC[C@H](C(=O)O)CC3)s2)n1 (single isomer, unassigned)
Reply: True

Task item: Is the reported IC50 for Cc1cc(Nc2nccc(C(F)F)n2)cc(-c2cnc(C(C)(O)C3CCC(C(=O)O)CC3)s2)n1 (single isomer, unassigned) strictly below 1 nM?
Reply: False

Task item: # strict comparison: is reported IC50 < 1 nM? input = Cc1cc(Nc2nccc(OC(C)C)n2)cc(-c2cnc([C@@]3(O)CC[C@H](C(N)=O)C(C)(C)C3)s2)n1 (single isomer, unassigned)
Reply: False

Task item: For this molecule, is IC50 lower than 1 nM? Cc1cc(Nc2cc(C3CCCCC3)ncn2)nc(-c2cnc(C3(O)CCCc4cc(C(=O)O)ccc43)s2)c1 (single isomer, unassigned)
Reply: False

Task item: # TODO verify IC50 < 1 nM strictly for this molecule: Cc1cc(Nc2cc(C(F)(F)F)ccn2)nc(-c2cnc(C3(O)CCC(C(=O)O)C(C)(C)C3)s2)n1 (single isomer, unassigned) [Example 1.11]
Reply: True
